- System: HOP-62 NSCLC
- assay-method-text: NCI-60 one-dose screen, 48 h (100 = growth as untreated, 0 = no growth, -100 = all killed)
- measurement-parameters: 10 µM unless noted
- Protocol: Growth inhibition of the HOP-62 human Non-Small Cell Lung tumor cell line is measured as a screen for anti-cancer activity. Cells are grown in 96 well plates and exposed to the test compound for 48 hours. Compounds are tested at a single concentration, which is 10^-5 M for most compounds. The reported endpoint is percent growth (GI% or GIPRCNT), where numbers from 0 - 100% represent growth inhibition, and numbers from -100% - 0 represent cell death. […]
About 83,000 compounds went through this panel and 20% of them were active in at least one assay; those are over-represented in the sample as a whole.
Given measured growth, output TRUE if it is greater than or equal to 90% and FALSE if not.

[Q] Record Cc1cc2c(C#N)n3c(c2cc1C)C(=O)C(c1ccccc1)Oc1ccccc1-3 (stereo not drawn) ; criterion: growth no lower than 90%. Met?
[A] FALSE

[Q] Record CCC(C)CC(C)C(=O)c1c(O)ccn(O)c1=O (stereo not drawn) ; criterion: growth no lower than 90%. Met?
[A] FALSE

[Q] Record O=C1OC(c2ccc(-c3ccccc3)cc2)=C/C1=C/c1cccs1 ; criterion: growth no lower than 90%. Met?
[A] TRUE

[Q] Record O=c1c(O)cccn1CCCNCCCN(CCCn1cccc(O)c1=O)CCCn1cccc(O)c1=O ; criterion: growth no lower than 90%. Met?
[A] TRUE

[Q] Record CCCCCCCC1(C)NC(=O)NC1=O (stereo not drawn) ; criterion: growth no lower than 90%. Met?
[A] TRUE

[Q] Record CCCCc1nc(Cl)c(CO)n1Cc1ccc(-c2ccccc2-c2nn[nH]n2)cc1 ; criterion: growth no lower than 90%. Met?
[A] TRUE

[Q] Record CCOc1nc(-c2ccccc2)cc2c(O)c(-c3nnco3)[nH]c(=O)c12 ; criterion: growth no lower than 90%. Met?
[A] FALSE

[Q] Record COc1ccc2c(c1)[nH]c(=O)c1c3cc(OC)c(OC)cc3cn21 ; criterion: growth no lower than 90%. Met?
[A] FALSE

[Q] Record CC(C)C(=O)Cc1cnccn1 ; criterion: growth no lower than 90%. Met?
[A] TRUE

[Q] Record O=C(Nc1ccc(Nc2ccncc2)cc1)c1ccc(Nc2ccnc3ccc([N+](=O)[O-])cc23)cc1[N+](=O)[O-] ; criterion: growth no lower than 90%. Met?
[A] TRUE

[Q] Record CN=C(NC)N/N=C(C)\C=N\NC(=NC)NC ; criterion: growth no lower than 90%. Met?
[A] TRUE

[Q] Record COc1ccc2c(c1)nc(N)c1c3ccccc3cn21 ; criterion: growth no lower than 90%. Met?
[A] FALSE

[Q] Record Cc1c(N(C)CS(=O)(=O)O)c(=O)n(-c2ccccc2)n1C ; criterion: growth no lower than 90%. Met?
[A] TRUE

[Q] Record CCN1C(=O)c2ccc3c4c(ccc(c24)C1=O)C(=O)N(CCCNCc1ccccc1OC)C3=O ; criterion: growth no lower than 90%. Met?
[A] FALSE

[Q] Record C/C(=N\N1CC(=O)NC1=O)c1ccc([N+](=O)[O-])o1 ; criterion: growth no lower than 90%. Met?
[A] TRUE

[Q] Record CC(C)(C)c1cc(O)c(O)c(C(C)(C)C)c1 ; criterion: growth no lower than 90%. Met?
[A] FALSE

[Q] Record O=C(Nc1ccc(Oc2ccc(NC(=O)Nc3ccc([N+](=O)[O-])cc3)cc2)cc1)Nc1ccc([N+](=O)[O-])cc1 ; criterion: growth no lower than 90%. Met?
[A] FALSE
